TARGET_ENTITY: hP2X3 (Homo sapiens)
TEST_DETAILS: Calcium uptake assay (Ca influx), P2X antagonist assay, P2X3 homomer
CONDITION_SUMMARY: inhibition of agonist-induced calcium influx
Experimental: Human P2X3 (Accession no. NM_002559), P2X2 (Accession no. NM_170682) and Rat P2X3 (Accession no. NM_031075) and P2X2 (Accession no. NM_053656) are cloned into a mammalian expression vector (e.g., pcDNAS/TO or pcDNA3 Invitrogen). […] Functional activity of compounds at the P2X receptor is determined by measuring their ability to inhibit agonist-induced calcium influx. […] At the start of each screening day, the agonist EC50 is determined. […]
Here, each record is paired with measured IC50 data.

MOLECULE_SMILES | ENDPOINT_UNIT | IC50
Cc1ccc(-c2cc(C(=O)N[C@H](C)c3cnc(C)nc3)cc(N3CCCC3=O)c2)cc1 | nM | 16.5
Cc1ncc([C@@H](C)NC(=O)c2cc(-c3ccccn3)cc(-c3ccccc3CO)c2)cn1 | nM | 91.6
Cc1ccc(-c2cc(C(=O)NCc3ccc(C)nc3)cc(-c3cnc(N)cn3)c2)nc1 | nM | 23.8

###

TARGET_ENTITY: hP2X3 (Homo sapiens, UniProt P56373)
Construct: expressed in transfected cells
TEST_DETAILS: Calcium uptake assay (Ca influx), P2X antagonist assay, P2X3 homomer
Format: cell-based
CONDITION_SUMMARY: inhibition of agonist-induced calcium influx
pIC50: −log10 of the molar value.
PROPERTY_MEASURED: pIC50

MOLECULE_SMILES | PROPERTY_MEASURED | READOUT_NUMBER
Cc1ccc(-c2cc(C(=O)NCc3ccc(C)nc3)cc(-c3ccc(C)cc3C#N)c2)nc1 | pIC50 | 7.29
Cc1ccc(-c2cc(C(=O)N[C@@H](C)CO)cc(-c3cnccc3C#N)c2)c(C#N)c1 | pIC50 | 8.66
COCc1ccccc1-c1cc(C(=O)N[C@H](C)c2cnc(C)nc2)cc(-c2ccccn2)c1 | pIC50 | 7.20
Cc1ccc(-c2cc(C(=O)N[C@@H](C)CO)cc(-c3ccccc3CO)c2)c(C#N)c1 | pIC50 | 8.15

###

Here, each record is paired with measured pIC50 data.
TARGET_ENTITY: hP2X3 (Homo sapiens)
TEST_DETAILS: Calcium uptake assay (Ca influx), P2X antagonist assay, P2X3 homomer
CONDITION_SUMMARY: inhibition of agonist-induced calcium influx
pIC50: −log10 of the molar value.
PROPERTY_MEASURED: pIC50

COMPOUND | READOUT_NUMBER
Cc1ccc(-c2cc(C(=O)N[C@@H](C)CO)cc(-c3c(C)cccc3C#N)c2)nc1 [Compound 72] | 7.23
Cc1ccc(-c2cc(C(=O)NCc3ccc(C)nc3)cc(-c3ccccc3CO)c2)cc1 [Compound 8] | 6.74
Cc1ccc(-c2cc(C(=O)NCc3ccc(C)nc3)cc(-c3ccccc3F)c2)cc1 [Compound 6] | 6.47
COCc1ccccc1-c1cc(C(=O)N[C@H](C)c2cnc(C)nc2)cc(-c2ccc(C)cn2)c1 [Compound 45] | 7.84
Cc1ccc(-c2cc(C(=O)NCc3ccc(C)nc3)cc(N3CCC[C@@H]3CO)c2)nc1 [Compound 63] | 7.93
COCC(CO)NC(=O)c1cc(-c2ccc(C)cn2)cc(-c2cc(C)ccc2C#N)c1 (centres unmarked) [Compound 74] | 6.86
Cc1ccc(-c2cc(C(=O)N[C@H](C)c3cnc(C)nc3)cc(-c3ccccc3C(N)=O)c2)nc1 [Compound 47] | 7.54
Cc1ccc(-c2cc(C(=O)NCc3ccc(C)nc3)cc(-c3ccccc3CN(C)C)c2)nc1 [Compound 28] | 7.18

###

TARGET_ENTITY: hP2X2/3H (Homo sapiens, UniProt P56373+Q9UBL9)
Sequence (P56373 whole entry): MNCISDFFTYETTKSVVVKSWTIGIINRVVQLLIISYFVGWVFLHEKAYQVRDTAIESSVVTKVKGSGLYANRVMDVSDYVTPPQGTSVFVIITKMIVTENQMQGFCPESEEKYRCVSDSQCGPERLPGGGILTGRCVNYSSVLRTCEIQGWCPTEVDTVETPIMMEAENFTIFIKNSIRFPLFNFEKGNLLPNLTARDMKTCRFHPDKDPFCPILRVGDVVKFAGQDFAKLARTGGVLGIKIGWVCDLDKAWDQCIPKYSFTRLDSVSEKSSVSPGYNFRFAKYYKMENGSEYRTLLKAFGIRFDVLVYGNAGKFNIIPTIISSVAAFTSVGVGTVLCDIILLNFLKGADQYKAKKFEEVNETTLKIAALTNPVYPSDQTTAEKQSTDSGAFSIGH
Sequence (Q9UBL9 whole entry): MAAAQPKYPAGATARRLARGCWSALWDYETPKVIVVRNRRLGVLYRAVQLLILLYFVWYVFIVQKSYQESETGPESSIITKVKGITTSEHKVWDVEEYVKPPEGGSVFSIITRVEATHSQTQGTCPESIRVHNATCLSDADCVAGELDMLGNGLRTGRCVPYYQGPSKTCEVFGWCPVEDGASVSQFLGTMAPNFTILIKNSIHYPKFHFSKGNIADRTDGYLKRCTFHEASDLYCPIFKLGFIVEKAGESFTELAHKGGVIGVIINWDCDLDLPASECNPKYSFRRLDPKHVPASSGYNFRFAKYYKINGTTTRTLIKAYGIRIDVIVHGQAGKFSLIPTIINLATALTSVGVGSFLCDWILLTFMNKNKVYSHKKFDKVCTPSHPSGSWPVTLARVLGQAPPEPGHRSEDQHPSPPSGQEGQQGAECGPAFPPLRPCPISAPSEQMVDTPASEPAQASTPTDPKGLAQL
TEST_DETAILS: Calcium uptake assay (Ca influx), P2X antagonist assay, P2X2/3 heteromer
CONDITION_SUMMARY: inhibition of agonist-induced calcium influx
Experimental: Human P2X3 (Accession no. NM_002559), P2X2 (Accession no. NM_170682) and Rat P2X3 (Accession no. NM_031075) and P2X2 (Accession no. NM_053656) are cloned into a mammalian expression vector (e.g., pcDNAS/TO or pcDNA3 Invitrogen). […] Functional activity of compounds at the P2X receptor is determined by measuring their ability to inhibit agonist-induced calcium influx. […] At the start of each screening day, the agonist EC50 is determined. […]
PROPERTY_MEASURED: IC50 (nM)

MOLECULE_SMILES | READOUT_NUMBER
Cc1ccc(-c2cc(C(=O)NCc3ccc(C)nc3)cc(-c3ccccc3C#N)c2)nc1 | 24.5
Cc1ccc(-c2cc(C(=O)NCc3cnc(C)nc3)cc(N3CCNCC3=O)c2)c(C#N)c1 | 729
Cc1ncc([C@@H](C)NC(=O)c2cc(-c3ccccn3)cc(-c3ccccc3C#N)c2)cn1 | 126
Cc1ccc(-c2cc(C(=O)NCc3ccc(C)nc3)cc(-c3ccc(F)cc3F)c2)cc1 | 8310
Cc1ccc(-c2cc(C(=O)NCc3ccc(C)nc3)cc(-c3ccncc3)c2)nc1 | 238
Cc1ccc(-c2cc(C(=O)N[C@@H](C)CO)cc(-c3cc(C)ccc3C#N)c2)nc1 | 240
COCc1ccccc1-c1cc(C(=O)N[C@H](C)c2cnc(C)nc2)cc(-c2ccc(C)cn2)c1 | 13.4
Cc1ccc(-c2cc(C(=O)N[C@H](C)CN3CCOCC3)cc(-c3c(F)cccc3C(F)(F)F)c2)nc1 | 26
Cc1ccc(-c2cc(C(=O)N[C@H](C)c3ccc(C)nc3)cc(N3CCCCC3=O)c2)cc1 | 52.7

###

TARGET_ENTITY: hP2X3 (Homo sapiens, UniProt P56373)
TEST_DETAILS: Calcium uptake assay (Ca influx), P2X antagonist assay, P2X3 homomer
CONDITION_SUMMARY: inhibition of agonist-induced calcium influx

MOLECULE_SMILES | TARGET_ENTITY | ENDPOINT_UNIT | IC50
COc1ccccc1-c1cc(C(=O)NCc2ccc(C)nc2)cc(-c2ccc(C)cn2)c1 | hP2X3 (Homo sapiens, UniProt P56373) | nM | 53.5
Cc1ccc(-c2cc(C(=O)N[C@@H](C)CO)cc(-c3ccc(C#N)cc3C)c2)nc1 | hP2X3 (Homo sapiens, UniProt P56373) | nM | 77.7
Cc1ccc(-c2cc(C(=O)NCc3ccc(C)nc3)cc(-c3cccnc3C#N)c2)nc1 | hP2X3 (Homo sapiens, UniProt P56373) | nM | 15.1
Cc1ccc(-c2cc(C(=O)N[C@H](C)c3cnc(C)nc3)cc(N3CCOCC3=O)c2)nc1 | hP2X3 (Homo sapiens, UniProt P56373) | nM | 89.2

###

Here, each record is paired with measured pIC50 data.
TARGET_ENTITY: hP2X2/3H (Homo sapiens, UniProt P56373+Q9UBL9)
TEST_DETAILS: Calcium uptake assay (Ca influx), P2X antagonist assay, P2X2/3 heteromer
CONDITION_SUMMARY: inhibition of agonist-induced calcium influx
pIC50: −log10 of the molar value.
PROPERTY_MEASURED: pIC50

COMPOUND | TARGET_ENTITY | READOUT_NUMBER
Cc1ccc(-c2cc(C(=O)NCc3ccc(C)nc3)cc(-c3ccccc3)c2)nc1 | hP2X2/3H (Homo sapiens, UniProt P56373+Q9UBL9) | 6.04
Cc1ccc(-c2cc(C(=O)NCc3ccc(C)nc3)cc(N3CCC[C@H]3CO)c2)cc1 | hP2X2/3H (Homo sapiens, UniProt P56373+Q9UBL9) | 6.90
Cc1ccc(-c2cc(C(=O)NCc3ccc(C)nc3)cc(N3CCN(C)CC3=O)c2)cc1 | hP2X2/3H (Homo sapiens, UniProt P56373+Q9UBL9) | 5.86
COCC(CO)NC(=O)c1cc(-c2ccc(C)cn2)cc(-c2cccc(F)c2F)c1 (centres unmarked) | hP2X2/3H (Homo sapiens, UniProt P56373+Q9UBL9) | 5.14
COc1ccc(-c2cc(C(=O)NCc3ccc(C)nc3)cc(-c3ccc(C)cc3)c2)cc1OC | hP2X2/3H (Homo sapiens, UniProt P56373+Q9UBL9) | 5.90
Cc1ccc(-c2cc(C(=O)NCc3cnc(C)nc3)cc(-c3ccc(C)cn3)c2)nc1 | hP2X2/3H (Homo sapiens, UniProt P56373+Q9UBL9) | 6.66
COc1cccc(-c2cc(C(=O)NCc3ccc(C)nc3)cc(-c3ccc(C)cc3)c2)c1 | hP2X2/3H (Homo sapiens, UniProt P56373+Q9UBL9) | 5.97
Cc1ccc(-c2cc(C(=O)NCc3ccc(C)nc3)cc(-c3cccnc3C#N)c2)nc1 | hP2X2/3H (Homo sapiens, UniProt P56373+Q9UBL9) | 7.30
